- Tested on: NaCl (2) 25%
- Experiment: Cytoprotective activity in the rat, NaCl 25%
- Type: in vivo
- Settings: read-out: Cytoprotective activity DE50, NaCl (2) 25%
- Procedure: iv) Cytoprotective activity in the rat The tests were carried out according to what has been described in literature: • 1 (A.Robert et al. Gastroenterology, 77, 433 (1979)) (Table 4) • 2 (Szabo et al. Sciene 214 (200) (1981)) (Table 4)
Listing of entries alongside the reported ED50.
Reported Endpoint: ED50

{"Compound": "CCCCCCC1CCC2(NC(=O)NC2=O)C1CCCCCCC(=O)O (stereo not shown)", "Endpoint Value": "15 mg/kg"}
{"Compound": "CCCCCCC1CCCC(N)C1CCCCCCC(=O)O (stereo not shown)", "Endpoint Value": "25 mg/kg"}
{"Compound": "CCCCCC1C(N)CCC1CCCCCCCCO (stereo not shown)", "Endpoint Value": "4 mg/kg"}
{"Compound": "CCCCCCC1CCC(N)C1CCCCCCC(OCC)OCC (stereo not shown)", "Endpoint Value": "17 mg/kg"}
